Tested on: NCI-H23
Experiment: NCI tumour cell line growth inhibition, 48 h
Calls of active or inactive are those of the source. No stated cut-off is given here; in the data, active = GI50 up to about 1.1 µM and inactive = higher. Non-standard residues stand in square brackets, D forms with d. Residues, ends and D or L forms follow the SMILES beside them. *: point of attachment. Phe(4-NO2) = N[CH](Cc1ccc([N+](=O)[O-])cc1)C(=O)O; Cbz = O=C(OCc1ccccc1)*; Boc = CC(C)(C)OC(=O)*
Labels: 1 (yes) for active, 0 (no) for inactive

- MOLECULE: "CCN(CC)c1ccc2cc(C(=O)Nc3ccc4[nH]c(C(=O)N5C[C@@H](CCl)c6c5cc(OC(=O)Nc5ccccc5)c5[nH]cc(C)c65)cc4c3)oc2c1"
  ANSWER LABEL: "1 (yes)"
- MOLECULE: "Cc1ccc(SC2C(C)(C)N(C(C)C)P2(=O)N(C(C)C)C(C)C)cc1 (centres undefined)"
  ANSWER LABEL: "0 (no)"
- MOLECULE: "O=C(O)CCCc1ccc(N(CCCl)CCCl)cc1"
  ANSWER LABEL: "0 (no)"
- MOLECULE: "COc1cc(C)cc2c(-c3c(O)cc(O)c4c3C[C@H](C)N[C@H]4C)cc(-c3cc(-c4c(O)cc(O)c5c4C[C@H](C)N[C@H]5C)c4cc(C)cc(OC)c4c3O)c(O)c12"
  ANSWER LABEL: "0 (no)"
- MOLECULE: "C(=N\\c1nc2cc3sc(/N=C/c4ccccc4)nc3cc2s1)/c1ccccc1"
  ANSWER LABEL: "0 (no)"
- MOLECULE: "COc1ccc(-c2cc(-c3ccccc3)c(C#N)c(=O)n2C2OC(CO)C(O)C(O)C2O)cc1 (centres undefined)"
  ANSWER LABEL: "0 (no)"
- MOLECULE: "Nc1nn2c(nc(N)c3c(N)n[nH]c32)c1/N=N\\c1ccc(Br)cc1"
  ANSWER LABEL: "0 (no)"
- MOLECULE: "CC(NC(=O)C(NC(=O)OCc1ccccc1)C(C)C)C(=O)NCC(=O)O (stereo not drawn) (Cbz-Val-Ala-Gly-OH; configuration not given here)"
  ANSWER LABEL: "0 (no)"
- MOLECULE: "CCCCCC(=O)NC(=S)Nc1nnn[nH]1"
  ANSWER LABEL: "0 (no)"
- MOLECULE: "COc1ccc(C2Oc3cc(OC)c(O)c(C)c3[C@H]2C)cc1 (some centres undefined)"
  ANSWER LABEL: "0 (no)"
- MOLECULE: "CC(C)(C)c1c(C(C)(C)C)c(=O)c1=O"
  ANSWER LABEL: "0 (no)"
- MOLECULE: "Cc1cc2c(c(C#N)c1C)NC(=O)CCC2=O"
  ANSWER LABEL: "0 (no)"
- MOLECULE: "Cc1ccc2c(=O)c3cccc(CC(=O)O)c3[nH]c2c1C"
  ANSWER LABEL: "0 (no)"
- MOLECULE: "O=C(/C=C/c1cccc(Oc2ccccc2)c1)NCc1ccc(C(=O)NCc2ccccc2)cc1"
  ANSWER LABEL: "0 (no)"
- MOLECULE: "CC12C/C(=C\\c3ccccc3)C(=O)C3C1CCCC32"
  ANSWER LABEL: "0 (no)"
- MOLECULE: "CCOC(=O)CCC(C(=O)OCC)n1nc2ccc(Nc3c(C)[n+]([O-])c4cc(F)c(OCC)cc4[n+]3[O-])cc2n1 (centres undefined)"
  ANSWER LABEL: "0 (no)"
- MOLECULE: "CCOc1ccc([Se][Se]c2ccc(OCC)cc2)cc1"
  ANSWER LABEL: "0 (no)"
- MOLECULE: "Cc1cn(C2CC(N)C(C(=O)O)O2)c(=O)[nH]c1=O (centres undefined)"
  ANSWER LABEL: "0 (no)"
- MOLECULE: "CN(C)CC1CCCC/C1=N/OC(=O)c1ccc(Cl)c(Cl)c1 (centres undefined)"
  ANSWER LABEL: "0 (no)"
- MOLECULE: "COc1cc2oc(-c3ccc4c(c3)OCO4)c(OC)c(=O)c2c(OC)c1OC"
  ANSWER LABEL: "0 (no)"
- MOLECULE: "O=C(O)C1C2C=CC(C2)C1c1ccccc1 (centres undefined)"
  ANSWER LABEL: "0 (no)"
- MOLECULE: "Oc1ccc2c3c1OC1c4[nH]ncc4C[C@H]4[C@@H](C2)N(CC2CC2)CC[C@]314 (some centres undefined)"
  ANSWER LABEL: "0 (no)"
- MOLECULE: "C1=Cc2nc1c(-c1ccncc1)c1ccc([n-]1)c(-c1ccncc1)c1nc(c(-c3ccncc3)c3ccc([n-]3)c2-c2ccncc2)C=C1.[Zn+2]"
  ANSWER LABEL: "0 (no)"
- MOLECULE: "CS(=O)(=O)c1cc(=O)c2ccccc2s1"
  ANSWER LABEL: "0 (no)"
- MOLECULE: "Cc1nn(CN2CCN(C)CC2)c(=S)n1/N=C/c1ccc(-c2ccc(Cl)cc2Cl)o1"
  ANSWER LABEL: "0 (no)"
- MOLECULE: "O=C1CC(=O)N(c2ccccc2)N1/C(=C/c1ccccc1)c1ccccc1"
  ANSWER LABEL: "0 (no)"
- MOLECULE: "CSC1CC2C(CC1(C)SC)C2(C)C (centres undefined)"
  ANSWER LABEL: "0 (no)"
- MOLECULE: "COC(=O)CCC(NC(=O)OC(C)(C)C)C(=O)NC(Cc1ccc([N+](=O)[O-])cc1)C(=O)NC(CCC(=O)OC)C(=O)OC (centres undefined) (Boc-Glu(OMe)-[Phe(4-NO2)]-Glu(OMe)-OMe; configuration not given here)"
  ANSWER LABEL: "0 (no)"
- MOLECULE: "COc1ccccc1/C=N/C12CC3CC(CC(C3)C1)C2"
  ANSWER LABEL: "0 (no)"
- MOLECULE: "N=C(N)Nc1ccc(CC(N)NCC(=O)O)cc1 (centres undefined)"
  ANSWER LABEL: "0 (no)"
- MOLECULE: "COC(=O)[C@H](Cc1c[nH]c2ccccc12)NC(=O)OCC1OC(n2cc(C)c(=O)[nH]c2=O)CC1N=[N+]=[N-] (some centres undefined)"
  ANSWER LABEL: "0 (no)"
- MOLECULE: "COc1ccc(/N=c2\\ssc(C(=S)Nc3ccc(OC)cc3)c2S)cc1"
  ANSWER LABEL: "0 (no)"
- MOLECULE: "CC(=O)/N=C1\\C=C(NC(C)=O)C(=O)c2ccccc21"
  ANSWER LABEL: "1 (yes)"
- MOLECULE: "CN(C)CCCNC(=O)c1cc(NC(=O)CCCn2c3ccccc3c3ccccc32)cn1C"
  ANSWER LABEL: "0 (no)"
- MOLECULE: "Cc1[nH]c(=O)nc(S)c1C(=O)NC1C2CCCCC2NC2CCCCC21 (centres undefined)"
  ANSWER LABEL: "0 (no)"
- MOLECULE: "O=C1NCCS(=O)(=O)N2CCC[C@@H]12"
  ANSWER LABEL: "0 (no)"
- MOLECULE: "[N-]=[N+]=Nc1ccc2c(c1)Sc1ccccc1N2CCCCN1CCN(C(=O)CCNC(=O)Cc2ccc(C(=O)c3ccccc3)cc2)CC1"
  ANSWER LABEL: "0 (no)"
- MOLECULE: "O=C1c2c(Br)sc(Br)c2C(NC(=O)C(F)(F)F)C1O (centres undefined)"
  ANSWER LABEL: "0 (no)"
- MOLECULE: "O=C1NC(=S)N/C1=C\\c1ccc(Br)s1"
  ANSWER LABEL: "0 (no)"
